B1: HDV Ribozyme (parent)
chain: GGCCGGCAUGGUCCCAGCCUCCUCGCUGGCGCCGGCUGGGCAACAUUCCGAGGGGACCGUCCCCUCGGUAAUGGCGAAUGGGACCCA

# Variants of: B1
# assay: self-cleavage, relative activity (ratio to wild type); higher = more cleavage; co-transcriptional
Listing of recorded self-cleavage by entry.

{"columns": ["sequenceEntry", "self-cleavage"],
 "data": [
  ["GGCCGGCAUGGUCCCAGCCUCCUCGCUGACGCCGGCUGGGCAACAUUCCGAGGGGACUGUCCCCUCGGUAAUGGCGAAUGGGACCCA [G29A C58U]", 0.197],
  ["GGCCGGCAUGGUCCCAUCCUCCUCGCUGGCGCCGGCUGGGCAACAUUCCGAAGGGACCGUCCCCUCGGUAAUGGCGAAUGGGACCCA [G17U G52A]", 0.509],
  ["GGCCGGCAUGGUCCCAGCCUCCUCGCUGGCGCCGGCUGGGCAACAUUCCGAGGGGACCGUCCCCUCGGUAAUGGUGGAUGGGACCCA [C75U A77G]", 0.0415],
  ["GGCCGGCAUGGUCCCAGCCUCGUCGCUGGCGCCGGCUGGGCAACAUUCCGAGGGGACGGUCCCCUCGGUAAUGGCGAAUGGGACCCA [C22G C58G]", 0],
  ["GGCCGGCAUGGUCCCAGCCUCCUCGCUGGCGCCGGCUGGGCAACAUUCCGAGGGGACCGUCCCCUCGGUAAUAGCGAAUGGGUCCCA [G73A A83U]", 0.323],
  ["GGCCGGCAUGGUCCCAGCCUCCUCGUUGGCGCCGGCUGGGCAACAUUCCGAGGGGACCGUCCCCUCGGUCAUGGCGAAUGGGACCCA [C26U A70C]", 1.08],
  ["GGCCGGCAUGGUCCCAGCCUCCUCACUGGCGCCGGCUGGGCAACAUUCCGAGGGGACCGUCCGCUCGGUAAUGGCGAAUGGGACCCA [G25A C63G]", 0.237],
  ["GGCCGGCAUGGUCCCAGCCUCCUCGCUGGCGCCGGCGGGGCAACAUUCCGAGGGGACCGUCCCCCCGGUAAUGGCGAAUGGGACCCA [U37G U65C]", 0.123],
  ["GGCCGGCAUGGUCCCAGCCUCCUCGCUGGCGCUGGCUGGGCAACCUUCCGAGGGGACCGUCCCCUCGGUAAUGGCGAAUGGGACCCA [C33U A45C]", 0.494],
  ["GGCCGGCAUGGUCCCAGCCUCCUCGCUGGCGCCGGCUGGGCAACAUGCCGAGGGGACCGUCCCCUCGGUAACGGCGAAUGGGACCCA [U47G U72C]", 0.554],
  ["GGCCGGCAUGGUCCCAGCCUCCUCGCUGGCGCCGGCUGGGCAACAUUCCGAGGGGACCGUCCCCUCGGUAACGGCGAAUGGCACCCA [U72C G82C]", 0.26],
  ["GGCCGGCAUGGUCCCACCCUCCUCGCUGGCGCCGGCUGGGCAACAUUGCGAGGGGACCGUCCCCUCGGUAAUGGCGAAUGGGACCCA [G17C C48G]", 0.252],
  ["GGCCGGCAUGGUCCCAGCCUCCUCGCUGGCGCCGGCUGGGCAACAUUCCCAGGAGACCGUCCCCUCGGUAAUGGCGAAUGGGACCCA [G50C G54A]", 0.369],
  ["GGCCGGCAUGGUCCCAGCCUCCUCGCUGGCGCCGGCUGGGCAACAUUCCGAGGUGACCGUCCCCUCGGUAAUGGCGCAUGGGACCCA [G54U A77C]", 0.415],
  ["GGCCGGCAUGGUCCCAGCCUCCUCACUGGCGCCGGCUGGGCAACAUUCCCAGGGGACCGUCCCCUCGGUAAUGGCGAAUGGGACCCA [G25A G50C]", 0.181],
  ["GGCCGGCAUGGUCCCAGCCUCCUCGCUGGCGCCGGCUGUGCAACAUUCGGAGGGGACCGUCCCCUCGGUAAUGGCGAAUGGGACCCA [G39U C49G]", 0.665],
  ["GGCCGGCAGCGUCCCAGCCUCCUCGCUGGCGCCGGCUGGGCAACAUUCCGAGGGGACCGUCCCCUCGGUAAUGGCGAAUGGGACCCA [U9G G10C]", 0.489],
  ["GGCCGGCGUGGUCCCAGCCUCCUUGCUGGCGCCGGCUGGGCAACAUUCCGAGGGGACCGUCCCCUCGGUAAUGGCGAAUGGGACCCA [A8G C24U]", 0.665],
  ["GGCCGGCAUGGUCCCAGCCUCCUCGCUGGCGCCGGCUGGGCAACAUUCCGAGGGGACGGUCCCCGCGGUAAUGGCGAAUGGGACCCA [C58G U65G]", 1.16],
  ["GUCCGCCAUGGUCCCAGCCUCCUCGCUGGCGCCGGCUGGGCAACAUUCCGAGGGGACCGUCCCCUCGGUAAUGGCGAAUGGGACCCA [G2U G6C]", 0.106],
  ["GGCCGGCAUGGUCCUAGCCUCCUCGCUGGCGCGGGCUGGGCAACAUUCCGAGGGGACCGUCCCCUCGGUAAUGGCGAAUGGGACCCA [C15U C33G]", 0.166],
  ["GGCCGGCAUGGUCCCAGCCUCCUCGCUGGCGCCGGAUGGGCUACAUUCCGAGGGGACCGUCCCCUCGGUAAUGGCGAAUGGGACCCA [C36A A42U]", 0.122],
  ["GGCCGGCAUGGUCCCAGCCUCCUCGCUGGCGCCGGCUGGGCAACAUUCCGAGGGGACCGUCCCCUUGGUAAUGGCGAAUGAGACCCA [C66U G81A]", 0.509],
  ["GGCCGGCAUGGUUCCAGCCUCCUCCCUGGCGCCGGCUGGGCAACAUUCCGAGGGGACCGUCCCCUCGGUAAUGGCGAAUGGGACCCA [C13U G25C]", 0.0723],
  ["GGCCGGCAUGGUCCCAGCCUCCUCGCUGGCGCCGGCUGGGCAACAUUGCGAGCGGACCGUCCCCUCGGUAAUGGCGAAUGGGACCCA [C48G G53C]", 0.776],
  ["GGCCGGCAUGGUCCCAGCCUCCUCGCUGGCGCCGGCUGGGCAACAUUCCGAGGGGACCGUCGCCUCGGCAAUGGCGAAUGGGACCCA [C62G U69C]", 0.534],
  ["GGCCGGCAUGGUCCCAGCCUCCUCGCUGGCGCCGGCUGCGCAACAUUCCGAGGGGACCGUCCACUCGGUAAUGGCGAAUGGGACCCA [G39C C63A]", 0.259]
]}
